Run Description: Fraction unbound in Dunkin-Hartley guinea pig plasma administered as iv at 3 mg/kg for first 20 mins of infusion followed by 10 mg/kg for second 20 mins of infusion followed by 30 mg/kg for third 20 mins of infusion by rapid equilibrium dialysis
Format: ADME, organism-based, Cavia porcellus

{"Smiles Representation": "COc1ccc2ncc(F)c(C[C@H](N)[C@@H]3CC[C@@H](NCc4ccc5c(n4)NC(=O)CO5)CO3)c2n1", "fraction unbound at 20 min": 0.33}
{"Smiles Representation": "COc1ccc2ccc(=O)n(C[C@H](N)[C@@H]3CC[C@@H](NCc4ccc5c(n4)NC(=O)CO5)CO3)c2n1", "fraction unbound at 20 min": 0.54}
{"Smiles Representation": "COc1ccc2ccc(=O)n(C[C@H](O)[C@@H]3CC[C@@H](NCc4ccc5c(n4)NC(=O)CO5)CO3)c2n1", "fraction unbound at 20 min": 0.43}

====

Run Description: Half-life in dog at 1 mg/kg, iv by LC-MS/MS analysis
Format: ADME, organism-based, Canis lupus familiaris
Experimental Setup: in vivo

{"Smiles Representation": "COc1ccc2ncc(F)c(C[C@H](N)[C@@H]3CC[C@@H](NCc4ccc5c(n4)NC(=O)CO5)CO3)c2n1", "half-life": "2.9 h"}
{"Smiles Representation": "COc1ccc2ccc(=O)n(C[C@H](N)[C@@H]3CC[C@@H](NCc4ccc5c(n4)NC(=O)CO5)CO3)c2n1", "half-life": "1.3 h"}

====

Assayed Target: hERG (KCNH2) (Homo sapiens)
Sequence (Q12809 whole entry): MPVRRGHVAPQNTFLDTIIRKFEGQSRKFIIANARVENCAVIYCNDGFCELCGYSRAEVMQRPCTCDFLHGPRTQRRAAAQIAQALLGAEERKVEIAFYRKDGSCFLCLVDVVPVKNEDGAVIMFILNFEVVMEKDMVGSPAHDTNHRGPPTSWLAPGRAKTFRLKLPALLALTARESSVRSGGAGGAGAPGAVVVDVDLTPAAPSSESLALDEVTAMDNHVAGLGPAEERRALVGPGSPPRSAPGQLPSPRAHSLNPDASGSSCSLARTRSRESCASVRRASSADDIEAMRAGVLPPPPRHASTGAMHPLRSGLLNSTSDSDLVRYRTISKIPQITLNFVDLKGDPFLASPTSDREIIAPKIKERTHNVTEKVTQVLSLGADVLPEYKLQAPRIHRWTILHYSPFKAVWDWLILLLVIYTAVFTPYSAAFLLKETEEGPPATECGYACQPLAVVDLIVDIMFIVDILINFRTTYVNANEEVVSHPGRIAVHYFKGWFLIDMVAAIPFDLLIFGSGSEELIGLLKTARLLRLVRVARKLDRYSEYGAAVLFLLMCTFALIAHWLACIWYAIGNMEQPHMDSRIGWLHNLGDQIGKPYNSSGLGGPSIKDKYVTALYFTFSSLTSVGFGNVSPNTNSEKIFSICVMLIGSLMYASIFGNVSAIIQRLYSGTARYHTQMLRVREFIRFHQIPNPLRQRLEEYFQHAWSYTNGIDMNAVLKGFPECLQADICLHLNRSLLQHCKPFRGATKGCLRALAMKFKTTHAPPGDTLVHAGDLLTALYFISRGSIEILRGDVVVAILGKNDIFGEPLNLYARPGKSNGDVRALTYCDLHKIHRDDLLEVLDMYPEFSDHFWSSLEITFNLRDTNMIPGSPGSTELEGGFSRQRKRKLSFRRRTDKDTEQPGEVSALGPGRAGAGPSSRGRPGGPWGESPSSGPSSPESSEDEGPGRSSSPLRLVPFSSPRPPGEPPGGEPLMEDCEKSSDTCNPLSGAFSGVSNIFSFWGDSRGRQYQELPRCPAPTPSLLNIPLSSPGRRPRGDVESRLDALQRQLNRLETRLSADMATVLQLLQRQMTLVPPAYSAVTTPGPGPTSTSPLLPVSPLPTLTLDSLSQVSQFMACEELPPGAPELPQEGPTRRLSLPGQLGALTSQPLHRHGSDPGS
Run Description: Inhibition of human ERG assessed as reduction of K+ current at 30 uM
Quantity Kind: inhibition at 30 µM (%)

{"Smiles Representation": "COc1ccc2ccc(=O)n(C[C@H](O)[C@@H]3CC[C@@H](NCc4ccc5c(n4)NC(=O)CO5)CO3)c2n1", "Assayed Target": "hERG (KCNH2) (Homo sapiens)", "Data Value": 71}
{"Smiles Representation": "COc1ccc2ccc(=O)n(C[C@H](N)[C@@H]3CC[C@@H](NCc4ccc5c(n4)NC(=O)CO5)CO3)c2n1", "Assayed Target": "hERG (KCNH2) (Homo sapiens)", "Data Value": 37}
{"Smiles Representation": "COc1ccc2ncc(F)c(C[C@H](N)[C@@H]3CC[C@@H](NCc4ccc5c(n4)NC(=O)CO5)CO3)c2n1", "Assayed Target": "hERG (KCNH2) (Homo sapiens)", "Data Value": 86}

====

Run Description: Volume of distribution at steady state in NMRI mouse at 10 mg/kg, iv by LC-MS/MS analysis
Type: ADME, organism-based
Experimental Setup: in vivo, read-out: Vdss
Catalogue of Vd readings, one per entry.

{"Molecule": "COc1ccc2ncc(F)c(CC(N)[C@@H]3CC[C@@H](NCc4ccc5c(n4)NC(=O)CO5)CO3)c2n1 (mixture of isomers)", "Vd / L/kg": 6}
{"Molecule": "COc1ccc2ncc(F)c(C[C@H](N)[C@@H]3CC[C@@H](NCc4ccc5c(n4)NC(=O)CO5)CO3)c2n1", "Vd / L/kg": 12.3}

====

Catalogue of clearance readings, one per entry.
Run Description: Clearance in Wistar rat at 10 mg/kg, iv by LC-MS/MS analysis
Format: ADME, organism-based
Experimental Setup: in vivo
Quantity Kind: clearance (mL/min/kg)

{"Smiles Representation": "COc1ccc2ccc(=O)n(C[C@H](N)[C@@H]3CC[C@@H](NCc4ccc5c(n4)NC(=O)CO5)CO3)c2n1", "Quantity Kind": "clearance", "Data Value": 110}
{"Smiles Representation": "COc1ccc2ncc(F)c(C[C@H](N)[C@@H]3CC[C@@H](NCc4ccc5c(n4)NC(=O)CO5)CO3)c2n1", "Quantity Kind": "clearance", "Data Value": 86}
